Test System: EGFR exon 20 ASV Ins V769_D770 (Ba/F3 cells) (Homo sapiens, UniProt P00533, INS769ASV)
Construct: expressed in transfected cells; host or cells: Ba/F3 (murine pro-B cells), retroviral transduction, puromycin selection, IL3-independent pool
Sequence (P00533 with tags, fused parts or gaps INS769ASV): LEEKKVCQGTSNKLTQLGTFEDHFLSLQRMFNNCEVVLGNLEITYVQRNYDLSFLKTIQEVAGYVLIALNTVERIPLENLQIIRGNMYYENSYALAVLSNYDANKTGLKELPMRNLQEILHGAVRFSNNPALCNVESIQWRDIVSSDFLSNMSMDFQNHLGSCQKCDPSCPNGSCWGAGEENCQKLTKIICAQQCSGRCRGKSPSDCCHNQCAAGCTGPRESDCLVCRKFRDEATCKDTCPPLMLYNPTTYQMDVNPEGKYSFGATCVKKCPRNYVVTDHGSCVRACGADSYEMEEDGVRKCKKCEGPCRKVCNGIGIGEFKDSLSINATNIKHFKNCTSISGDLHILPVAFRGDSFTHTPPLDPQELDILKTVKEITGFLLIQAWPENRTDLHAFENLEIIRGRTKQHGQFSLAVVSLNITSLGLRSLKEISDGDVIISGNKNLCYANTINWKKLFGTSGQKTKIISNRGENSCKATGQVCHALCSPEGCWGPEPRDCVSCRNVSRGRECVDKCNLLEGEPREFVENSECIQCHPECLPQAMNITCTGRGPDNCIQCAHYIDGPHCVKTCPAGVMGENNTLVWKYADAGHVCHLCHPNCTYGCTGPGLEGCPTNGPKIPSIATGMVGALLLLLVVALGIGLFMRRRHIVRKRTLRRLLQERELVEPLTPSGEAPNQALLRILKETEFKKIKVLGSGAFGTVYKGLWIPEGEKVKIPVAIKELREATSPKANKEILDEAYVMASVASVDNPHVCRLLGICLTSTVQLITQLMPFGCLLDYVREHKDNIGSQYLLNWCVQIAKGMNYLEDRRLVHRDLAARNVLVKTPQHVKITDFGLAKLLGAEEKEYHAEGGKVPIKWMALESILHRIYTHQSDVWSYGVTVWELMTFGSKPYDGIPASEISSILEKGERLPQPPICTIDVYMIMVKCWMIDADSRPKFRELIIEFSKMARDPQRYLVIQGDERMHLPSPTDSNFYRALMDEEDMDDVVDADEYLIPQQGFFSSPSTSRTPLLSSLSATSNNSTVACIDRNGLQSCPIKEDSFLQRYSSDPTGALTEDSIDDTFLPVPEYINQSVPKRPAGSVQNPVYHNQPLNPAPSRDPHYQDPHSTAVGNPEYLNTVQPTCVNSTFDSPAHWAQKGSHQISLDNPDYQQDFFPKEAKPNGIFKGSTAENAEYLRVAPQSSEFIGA
Protocol Notes: Inhibitor activity on EGFR-dependent cell growth (CellTiter-Glo, 72 h), Ba/F3 EGFR exon 20 ASV Ins
Assay type: cell-based
Condition Set: read-out: BaF3 ASV IC50
pIC50: −log10 of the molar value.
Quantity Name: pIC50

Record excerpt, results attached:
Compound	pIC50
COCC[C@@H]1CNC(=O)c2c1[nH]c(-c1ccnc(N)n1)c2Nc1cccc(Cl)c1OC	> 7.00
COc1c(Nc2c(-c3ccnc(N)n3)[nH]c3c2C(=O)NCC3)ccc(F)c1F	< 6.00
COc1c(Cl)cccc1Nc1c(-c2ccnc(Nc3cnn(C(C)C)c3)n2)[nH]c2c1C(=O)NCC2	> 7.00
CC[C@H]1CNC(=O)c2c1[nH]c(-c1ccnc(N)n1)c2Nc1cccc(Cl)c1OC [189b]	> 7.00
C=CC(=O)N1CCC2(CC1)CNC(=O)c1c2[nH]c(-c2ccncc2F)c1Nc1cccc(Cl)c1CC	> 7.00

I have 3 compounds here; please give me pIC50 for each one.
1. COc1c(Cl)cccc1Nc1c(-c2ccnc(NCCF)n2)[nH]c2c1C(=O)NCC2
2. COc1c(Cl)cccc1Nc1c(-c2ccnc3[nH]c(=O)oc23)[nH]c2c1C(=O)NCC2
3. COc1c(Cl)cccc1Nc1c(-c2ccncc2F)[nH]c2c1C(=O)NC[C@H]2CCN1CCOCC1

**Result**
6.00 to 7.00
< 6.00
< 6.00
